Hello, the source for this data is patent US7485641B2, in case you need it.

Tested on: DPP-IV (Homo sapiens)
Construct: purchased Enzyme Systems Products SPE-01
Sequence (P27487 whole entry, species assumed): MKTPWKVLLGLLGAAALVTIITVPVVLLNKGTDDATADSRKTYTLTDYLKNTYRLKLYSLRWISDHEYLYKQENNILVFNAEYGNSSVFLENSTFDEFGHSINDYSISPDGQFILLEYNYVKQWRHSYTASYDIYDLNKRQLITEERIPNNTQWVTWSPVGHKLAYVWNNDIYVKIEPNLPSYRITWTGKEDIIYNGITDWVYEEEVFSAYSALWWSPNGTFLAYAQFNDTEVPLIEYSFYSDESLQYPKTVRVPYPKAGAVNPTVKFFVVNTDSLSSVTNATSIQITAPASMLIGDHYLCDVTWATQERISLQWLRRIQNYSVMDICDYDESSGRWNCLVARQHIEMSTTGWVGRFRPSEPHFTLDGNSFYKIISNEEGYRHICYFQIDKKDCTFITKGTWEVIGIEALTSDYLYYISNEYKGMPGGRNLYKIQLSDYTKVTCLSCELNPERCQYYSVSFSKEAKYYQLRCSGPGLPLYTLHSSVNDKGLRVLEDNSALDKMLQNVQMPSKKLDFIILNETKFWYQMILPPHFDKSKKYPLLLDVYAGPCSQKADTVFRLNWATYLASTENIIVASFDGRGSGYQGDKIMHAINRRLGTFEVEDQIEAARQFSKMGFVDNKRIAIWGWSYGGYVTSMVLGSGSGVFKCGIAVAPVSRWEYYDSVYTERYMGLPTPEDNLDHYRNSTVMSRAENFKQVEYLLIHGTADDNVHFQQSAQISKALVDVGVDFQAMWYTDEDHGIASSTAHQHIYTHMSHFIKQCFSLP
Measurement notes: In vitro assay for dipeptidyl peptidase inhibition
Type: biochemical
Study conditions: n-value given in brackets; read-out: DPP-IV IC50
Structures can show the parent of a compound that is named as a salt.
Readout type: IC50

Some molecules with recorded IC50:
CS(=O)(=O)c1ccc(S(=O)(=O)Oc2ccc3c(N4C[C@H](N)[C@@H](N5CCCCC5=O)C4)ncnc3c2)cc1 ... 278 nM
CCS(=O)(=O)Oc1ccc2c(N3C[C@H](N)[C@@H](N4CCCCC4=O)C3)ncnc2c1 ... 218 nM
N[C@H]1CN(c2ncnc(N3C[C@@H](F)[C@H](F)C3)n2)C[C@@H]1N1CCCCC1=O ... 154 nM

State recorded IC50 for all listed molecules.
1. N[C@H]1CN(c2ncnc3cc(OC4CCC4)ccc23)C[C@@H]1N1CCCCC1=O
2. N[C@H]1CN(c2ncnc3cc(Oc4ccc(OC(F)(F)F)cc4)ccc23)C[C@@H]1N1CCCCC1=O [Example 131]
3. CC1(O)CCN(c2ncnc(N3C[C@H](N)[C@@H](N4CCCCC4=O)C3)n2)CC1
4. N[C@H]1CN(c2ncnc3cc(Cl)ccc23)C[C@@H]1N1CCCCC1=O [Example 102, hydrochloride]
5. CCC[C@H](C)Oc1cc(N2C[C@H](N)[C@@H](N3CCCCC3=O)C2)ncn1
6. CC1(O)CCN(c2ncnc(N3C[C@H](N)[C@@H](N4CCCCC4=O)C3)n2)C1 (stereo partly shown)
7. N[C@H]1CN(c2cc(N3CCC(F)(F)C3)nc(C(F)(F)F)n2)C[C@@H]1N1CC(F)(F)CCC1=O
8. CCSc1ccc2c(N3C[C@H](N)[C@@H](N4CC(F)(F)CCC4=O)C3)ncnc2c1

Return:
1: 101 nM; 2: 189 nM; 3: 558 nM; 4: 61.4 nM; 5: 1030 nM; 6: 316 nM; 7: 56.7 nM; 8: 38.4 nM

Your task in this section: give IC50 for each listed record.
1. COc1cccc2c(N3C[C@H](N)[C@@H](N4CCCCC4=O)C3)ncnc12 [Example 108, trifluoroacetate]
2. N[C@H]1CN(c2ncnc(-c3ccccc3)n2)C[C@@H]1N1CC(F)(F)CCC1=O [Example 84, trifluoroacetate]
3. COc1cc2ncnc(N3C[C@H](N)[C@@H](N4CCCCC4=O)C3)c2cc1Cl [Example 106, trifluoroacetate]
4. N[C@H]1CN(c2cc(-c3ccccc3)ncn2)C[C@@H]1N1CC(F)(F)CCC1=O [Example 82, trifluoroacetate]
5. CS(=O)(=O)c1ccccc1S(=O)(=O)Oc1ccc2c(N3C[C@H](N)[C@@H](N4CC(F)(F)CCC4=O)C3)ncnc2c1

Return:
1: 175 nM; 2: 38.7 nM; 3: 99.6 nM; 4: 28.8 nM; 5: < 1 nM

Go through the list and state IC50 for each entry.
1. N[C@H]1CN(c2ncnc3cc(C(F)(F)F)ccc23)C[C@@H]1N1CCCCC1=O
2. N[C@H]1CN(c2cc(N3CCC(F)(F)C3)ncn2)C[C@@H]1N1CCCC1=O
3. N[C@H]1CN(c2ncnc3cc(OS(=O)(=O)c4ccc(F)cc4F)ccc23)C[C@@H]1N1CCCCC1=O
4. N[C@H]1CN(c2cc(N3CCc4sccc4C3)ncn2)C[C@@H]1N1CCCC1=O
5. N[C@H]1CN(c2ncnc3c2ncn3CC(F)(F)F)C[C@@H]1N1CCCCC1=O

Return:
["47.2 nM", "522 nM", "280 nM", "547 nM", "497 nM"]

Fill in IC50 for each of the 4 molecules listed.
1. N[C@H]1CN(c2ncnc3cc(Oc4ccccc4)ccc23)C[C@@H]1N1CC(F)(F)CCC1=O
2. CC(=O)N[C@H]1CCN(c2ncnc(N3C[C@H](N)[C@@H](N4CCCCC4=O)C3)n2)C1
3. N[C@H]1CN(c2cc(N3CCC(F)(F)C3)ncn2)C[C@@H]1N1CCCCC1=O
4. CC(C)Oc1ccc2c(N3C[C@H](N)[C@@H](N4CCCCC4=O)C3)ncnc2c1

Return:
1. 122 nM
2. 90 nM
3. 25.5 nM
4. 29.7 nM
